Target: κ opioid receptor (Homo sapiens (Human))
Test: κ-opioid receptor [35S]GTPγS functional assay, U-2 OS cells
Format: biochemical
Procedure: κ-Opioid Receptor Functional Assay Procedures: Functional [^35S]GTPγS binding assays were conducted as follows. κ opioid receptor membrane solution was prepared by sequentially adding final concentrations of 0.026 μg/μl κ membrane protein (in-house), 10 μg/mL saponin, 3 μM GDP and 0.20 nM [^35S]GTPγS to binding buffer (100 mM NaCl, 10 mM MgCl2, 20 mM HEPES, pH 7.4) on ice. […]
Measurement label: EC50
Include the unit right after the number.

INSERT INTO measurements (compound_smiles, assayed_system, endpoint_result) VALUES
  ('CN1CC[C@]23Cc4[nH]c(=O)c(S(C)(=O)=O)cc4C[C@@]2(O)[C@H]1Cc1ccc(O)cc13', 'κ opioid receptor (Homo sapiens (Human))', '0.203 µM'),
  ('O=c1[nH]c2c(cc1S(=O)(=O)c1ccccc1)C[C@@]1(O)[C@H]3Cc4ccc(O)cc4[C@@]1(CCN3CC1CC1)C2', 'κ opioid receptor (Homo sapiens (Human))', '0.00026 µM'),
  ('CN1CC[C@]23Cc4[nH]c(=O)c(S(=O)(=O)c5ccccc5)cc4C[C@@]2(O)[C@H]1Cc1ccc(O)cc13', 'κ opioid receptor (Homo sapiens (Human))', '0.0358 µM');

# evaluate next
Find the recorded EC50 belonging to "CS(=O)(=O)c1cc2c([nH]c1=O)C[C@]13CCN(CC4CC4)[C@H](Cc4ccc(O)cc41)[C@]3(O)C2" and report it.
0.00085 µM

---

Biological target: μ-opioid receptor (Homo sapiens (Human))
Assay: μ-opioid receptor [35S]GTPγS functional assay, HEK-293 or CHO cells
Assay type: biochemical
Measurement label: EC50 (nM)
Reply with just the number (in nM).

INSERT INTO measurements (molecule, measurement_label, unit_symbol, endpoint_result) VALUES
  ('CN1CC[C@]23Cc4[nH]c(=O)c(S(C)(=O)=O)cc4C[C@H]2[C@H]1Cc1ccc(O)cc13 [Compound 11]', 'EC50', 'nM', 259);

Next up:
I am curious: what EC50 value has been reported for CN1CC[C@]23Cc4[nH]c(=O)c(S(=O)(=O)c5ccccc5)cc4C[C@H]2[C@H]1Cc1ccc(O)cc13 [Compound 12] ?
83.1

---

Molecular target: μ-opioid receptor (Homo sapiens (Human), UniProt P35372)
Measurement label: pKi
Units for pKi: none; it is -log10 of a concentration expressed in mol/L.

May I ask what pKi has been recorded for CS(=O)(=O)c1cc2c([nH]c1=O)C[C@]13CCN(CC4CC4)[C@H](Cc4ccc(O)cc41)[C@]3(O)C2 [Compound 5] ?
9.12

---

Biological target: κ opioid receptor (Homo sapiens (Human))
Experiment: κ-opioid receptor [35S]GTPγS functional assay, U-2 OS cells
Assay type: biochemical
Details: U-2 OS cells; relative to U69,593
Measurement label: Emax (%)
Please give a number only; it is taken to be in %.

Solved entries (count: 3):
INSERT INTO measurements (compound_smiles, assayed_system, measurement_label, unit_symbol, endpoint_result) VALUES
  ('CS(=O)(=O)c1cc2c([nH]c1=O)C[C@]13CCN(CC4CC4)[C@H](Cc4ccc(O)cc41)[C@]3(O)C2', 'κ opioid receptor (Homo sapiens (Human))', 'Emax', '%', 55.7),
  ('CN1CC[C@]23Cc4[nH]c(=O)c(S(C)(=O)=O)cc4C[C@@]2(O)[C@H]1Cc1ccc(O)cc13', 'κ opioid receptor (Homo sapiens (Human))', 'Emax', '%', 71.3),
  ('CN1CC[C@]23Cc4[nH]c(=O)c(S(=O)(=O)c5ccccc5)cc4C[C@@]2(O)[C@H]1Cc1ccc(O)cc13', 'κ opioid receptor (Homo sapiens (Human))', 'Emax', '%', 82.3);

Kindly review the next molecule as well.
GET /values?readout=Emax&item= "O=c1[nH]c2c(cc1S(=O)(=O)c1ccccc1)C[C@@]1(O)[C@H]3Cc4ccc(O)cc4[C@@]1(CCN3CC1CC1)C2"
33.2

---

// values below are reported pEC50
Target: κ opioid receptor (Homo sapiens (Human))
Assay: κ-opioid receptor [35S]GTPγS functional assay, HEK-293 or CHO cells
Format: biochemical
Hey, just a heads up that pEC50 is the negative log base 10 of the concentration in molar.

INSERT INTO measurements (compound_smiles, endpoint_result) VALUES
  ('CN1CC[C@]23Cc4[nH]c(=O)c(S(C)(=O)=O)cc4C[C@H]2[C@H]1Cc1ccc(O)cc13', 6.97),
  ('CN1CC[C@]23Cc4[nH]c(=O)c(S(=O)(=O)c5ccccc5)cc4C[C@H]2[C@H]1Cc1ccc(O)cc13', 7.76);

// moving on: another record for pEC50
For the molecule "CS(=O)(=O)c1cc2c([nH]c1=O)C[C@]13CCN(CC4CC4)[C@H](Cc4ccc(O)cc41)[C@]3(O)C2" , what pEC50 is on record?
8.90

---

Form field: Ki (one value per entry).
Molecular target: recombinant human kappa opioid receptor (κ) (Homo sapiens (Human))
Assay: κ-opioid receptor radioligand dose-displacement binding assay ([3H]-U69,593)
Give your result in nM as a bare value.

INSERT INTO measurements (compound, measurement_label, endpoint_result) VALUES
  ('CN1CC[C@]23Cc4[nH]c(=O)c(S(C)(=O)=O)cc4C[C@H]2[C@H]1Cc1ccc(O)cc13 [Compound 11]', 'Ki', 13.1),
  ('CN1CC[C@]23Cc4[nH]c(=O)c(S(=O)(=O)c5ccccc5)cc4C[C@H]2[C@H]1Cc1ccc(O)cc13 [Compound 12]', 'Ki', 2.78),
  ('CN1CC[C@]23Cc4[nH]c(=O)c(S(=O)(=O)c5ccccc5)cc4C[C@@]2(O)[C@H]1Cc1ccc(O)cc13 [Compound 8]', 'Ki', 19.5);

// next entry
What measured Ki goes with CS(=O)(=O)c1cc2c([nH]c1=O)C[C@]13CCN(CC4CC4)[C@H](Cc4ccc(O)cc41)[C@]3(O)C2 [Compound 5] ?
0.36

---

Biological target: μ-opioid receptor (Homo sapiens (Human))
Test: μ-opioid receptor [35S]GTPγS functional assay, HEK-293 or CHO cells
Assay type: biochemical
Conditions: HEK-293 or CHO cells; relative to DAMGO
Measurement label: Emax (%)
Report only the number, with the unit % understood.

Would you please look over these solved cases?
INSERT INTO assay_data (compound_smiles, measurement_label, endpoint_result) VALUES
  ('O=c1[nH]c2c(cc1S(=O)(=O)c1ccccc1)C[C@H]1[C@H]3Cc4ccc(O)cc4[C@@]1(CCN3CC1CC1)C2', 'Emax', 2),
  ('CN1CC[C@]23Cc4[nH]c(=O)c(S(C)(=O)=O)cc4C[C@H]2[C@H]1Cc1ccc(O)cc13', 'Emax', 20.7),
  ('CS(=O)(=O)c1cc2c([nH]c1=O)C[C@]13CCN(CC4CC4)[C@H](Cc4ccc(O)cc41)[C@]3(O)C2', 'Emax', 1),
  ('CS(=O)(=O)c1cc2c([nH]c1=O)C[C@]13CCN(CC4CC4)[C@H](Cc4ccc(O)cc41)[C@@H]3C2', 'Emax', 2.5);

We next turn to a different compound, shown below.
Data request, read-out Emax, for "CN1CC[C@]23Cc4[nH]c(=O)c(S(=O)(=O)c5ccccc5)cc4C[C@H]2[C@H]1Cc1ccc(O)cc13"
19.8

---

Target: UniProt P35372
Assay: μ-opioid receptor [35S]GTPγS functional assay, HEK-293 or CHO cells
Type: biochemical
Procedure: μ-Opioid Receptor Functional Assay Procedures: [^35S]GTPγS functional assays were conducted using freshly thawed μ-receptor membranes prepared in-house from a cell line expressing recombinant μ opioid receptor in a HEK-293, CHO, or U-2 OS cell background or purchased from a commercial source (Perkin Elmer, Shelton, Conn.). […] Data were analyzed using the sigmoidal dose-response curve fitting functions in GraphPad PRISM v. […]
pEC50: −log10 of the molar value.
Listed molecules paired with reported pEC50

Sample records with pEC50:
INSERT INTO assay_data (compound_smiles, assayed_system, endpoint_result) VALUES
  ('CS(=O)(=O)c1cc2c([nH]c1=O)C[C@]13CCN(CC4CC4)[C@H](Cc4ccc(O)cc41)[C@@H]3C2', 'UniProt P35372', '< 4.70'),
  ('CS(=O)(=O)c1cc2c([nH]c1=O)C[C@]13CCN(CC4CC4)[C@H](Cc4ccc(O)cc41)[C@]3(O)C2', 'UniProt P35372', '< 4.70');

// lookup pEC50 for "O=c1[nH]c2c(cc1S(=O)(=O)c1ccccc1)C[C@H]1[C@H]3Cc4ccc(O)cc4[C@@]1(CCN3CC1CC1)C2"
< 4.70
